assay_details: Safety, tolerability and pharmacokinetics in healthy subjects, single dose (Example 7)
Type: in vivo, human
run_conditions: human, plasma, oral, single dose 10 mg
measured_attribute: half-life (h)
I only need the number, in h, no unit after it.

Record `N#Cc1ccc(N2N=C3c4ccc(C(=O)N5CCC(O)CC5)nc4CC[C@@H]3[C@@H]2C2CCCC2)cc1Cl` , field half-life: 52.8

###

assay_details: 13-week toxicity and pharmacokinetic study in SD rats with 4-week recovery (Example 5)
Assay type: in vivo
run_conditions: rat, in vivo, oral; male SD rats, 13 weeks; read-out: NOAEL (no observed adverse effect level)
measured_attribute: NOAEL at 13 weeks (mg/kg/day)
The figure you give is taken to be in mg/kg/day; do not add the unit.

Lab note: `N#Cc1ccc(N2N=C3c4ccc(C(=O)N5CCC(O)CC5)nc4CC[C@@H]3[C@@H]2C2CCCC2)cc1Cl` gave NOAEL at 13 weeks of 30
